Data origin, for the record: ChEMBL document CHEMBL1144302

# measuredTarget: Cannabinoid receptor 1 (Homo sapiens, UniProt P21554)
# Sequence (P21554 whole entry): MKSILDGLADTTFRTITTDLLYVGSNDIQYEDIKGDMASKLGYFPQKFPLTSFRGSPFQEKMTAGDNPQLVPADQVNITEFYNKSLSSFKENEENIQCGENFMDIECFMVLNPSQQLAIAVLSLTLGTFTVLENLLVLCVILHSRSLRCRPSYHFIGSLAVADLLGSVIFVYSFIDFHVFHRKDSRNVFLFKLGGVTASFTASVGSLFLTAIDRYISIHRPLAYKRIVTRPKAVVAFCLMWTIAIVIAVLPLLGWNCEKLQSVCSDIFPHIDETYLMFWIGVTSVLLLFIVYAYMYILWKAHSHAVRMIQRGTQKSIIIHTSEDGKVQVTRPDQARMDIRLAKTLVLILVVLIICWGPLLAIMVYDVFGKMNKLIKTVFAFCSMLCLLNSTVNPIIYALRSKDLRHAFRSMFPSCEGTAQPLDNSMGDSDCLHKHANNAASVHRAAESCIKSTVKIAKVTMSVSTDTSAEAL
Each record's Ki is compared with low (below 1000 nM), mid (1000 nM to below 2000 nM), high (2000 nM or more) to give its class.

CCCNC(=O)N[C@@H](C)c1ccc(S(=O)(=O)c2ccc(OC)cc2S(=O)(=O)c2ccc(OC)cc2)cc1 :: high
CCC(=O)N[C@@H](C)c1ccc(S(=O)(=O)c2ccc(OC)cc2S(=O)(=O)c2ccc(OC)cc2)cc1 :: high
COc1ccc(C(=O)N[C@@H](C)c2ccc(S(=O)(=O)c3ccc(OC)cc3S(=O)(=O)c3ccc(OC)cc3)cc2)cc1 :: mid
COc1ccc(S(=O)(=O)c2cc(OC)ccc2S(=O)(=O)c2ccc([C@H](C)NS(=O)(=O)c3ccccc3)cc2)cc1 :: low
COc1ccc(S(=O)(=O)c2cc(OC)ccc2S(=O)(=O)c2ccc([C@H](C)NC(=O)C3CC3)cc2)cc1 :: high
CCCC(=O)N[C@@H](C)c1ccc(S(=O)(=O)c2ccc(OC)cc2S(=O)(=O)c2ccc(OC)cc2)cc1 :: mid
COc1ccc(S(=O)(=O)c2cc(OC)ccc2S(=O)(=O)c2ccc([C@H](C)NC(=O)C(C)(C)C)cc2)cc1 :: high
COc1ccc(S(=O)(=O)c2cc(OC)ccc2S(=O)(=O)c2ccc([C@H](C)NS(=O)(=O)c3ccc(Cl)c(Cl)c3)cc2)cc1 :: low
COc1ccc(S(=O)(=O)c2cc(OC)ccc2S(=O)(=O)c2ccc([C@H](C)NC(=O)c3ccc(C)cc3)cc2)cc1 :: low

====

# experimentNotes: Binding affinity for cannabinoid receptor 2 was determined by using [35S]GTP-gamma-S, as radioligand
# Format: functional, Homo sapiens
pKi: −log10 of the molar value.
Listed compounds paired with reported pKi
measuredParameter: pKi

CCCCS(=O)(=O)N[C@@H](C)c1ccc(S(=O)(=O)c2ccc(OC)cc2S(=O)(=O)c2ccc(OC)cc2)cc1 :: 7.39
COc1ccc(S(=O)(=O)c2cc(OC)ccc2S(=O)(=O)c2ccc([C@H](C)NC(=O)C3CC3)cc2)cc1 :: 7.80
CCCC(=O)N[C@@H](C)c1ccc(S(=O)(=O)c2ccc(OC)cc2S(=O)(=O)c2ccc(OC)cc2)cc1 :: 8.21
COc1ccc(S(=O)(=O)c2cc(OC)ccc2S(=O)(=O)c2ccc([C@H](C)NS(=O)(=O)c3ccc(C)cc3)cc2)cc1 :: 6.31
COc1ccc(S(=O)(=O)c2cc(OC)ccc2S(=O)(=O)c2ccc([C@H](C)NC(=O)Nc3ccc(F)cc3)cc2)cc1 :: 5.94
COc1ccc(S(=O)(=O)c2cc(OC)ccc2S(=O)(=O)c2ccc([C@H](C)NC(=O)Cc3ccccc3)cc2)cc1 :: 6.39
COc1ccc(C(=O)N[C@@H](C)c2ccc(S(=O)(=O)c3ccc(OC)cc3S(=O)(=O)c3ccc(OC)cc3)cc2)cc1 :: 5.90
COc1ccc(S(=O)(=O)c2cc(OC)ccc2S(=O)(=O)c2ccc([C@H](C)NS(C)(=O)=O)cc2)cc1 :: 9.40
CCCNC(=O)N[C@@H](C)c1ccc(S(=O)(=O)c2ccc(OC)cc2S(=O)(=O)c2ccc(OC)cc2)cc1 :: 6.31
COc1ccc(S(=O)(=O)c2cc(OC)ccc2S(=O)(=O)c2ccc([C@H](C)NC(=O)C(C)(C)C)cc2)cc1 :: 7.41
CCS(=O)(=O)N[C@@H](C)c1ccc(S(=O)(=O)c2ccc(OC)cc2S(=O)(=O)c2ccc(OC)cc2)cc1 :: 9.00
COc1ccc(S(=O)(=O)c2cc(OC)ccc2S(=O)(=O)c2ccc([C@H](C)NS(=O)(=O)Cc3ccccc3)cc2)cc1 :: 6.80
COc1ccc(S(=O)(=O)c2cc(OC)ccc2S(=O)(=O)c2ccc([C@H](C)NC(=O)c3ccc(Cl)c(Cl)c3)cc2)cc1 :: 6.78
COc1ccc(S(=O)(=O)c2cc(OC)ccc2S(=O)(=O)c2ccc([C@H](C)NC(=O)c3ccc(C)cc3)cc2)cc1 :: 6.54
COc1ccc(S(=O)(=O)c2cc(OC)ccc2S(=O)(=O)c2ccc([C@H](C)NC(=O)C(F)(F)F)cc2)cc1 :: 9.52
COc1ccc(S(=O)(=O)c2cc(OC)ccc2S(=O)(=O)c2ccc([C@H](C)NC(=O)Nc3ccc(C)cc3)cc2)cc1 :: 6.10
COc1ccc(S(=O)(=O)c2cc(OC)ccc2S(=O)(=O)c2ccc([C@H](C)NC(C)=O)cc2)cc1 :: 8.11

====

# measuredTarget: Cannabinoid receptor (Homo sapiens) (UniProt P34972+P21554)
# Sequence (P21554 whole entry, looked up): as the sequence (P21554 whole entry) above
# Sequence (P34972 whole entry, looked up): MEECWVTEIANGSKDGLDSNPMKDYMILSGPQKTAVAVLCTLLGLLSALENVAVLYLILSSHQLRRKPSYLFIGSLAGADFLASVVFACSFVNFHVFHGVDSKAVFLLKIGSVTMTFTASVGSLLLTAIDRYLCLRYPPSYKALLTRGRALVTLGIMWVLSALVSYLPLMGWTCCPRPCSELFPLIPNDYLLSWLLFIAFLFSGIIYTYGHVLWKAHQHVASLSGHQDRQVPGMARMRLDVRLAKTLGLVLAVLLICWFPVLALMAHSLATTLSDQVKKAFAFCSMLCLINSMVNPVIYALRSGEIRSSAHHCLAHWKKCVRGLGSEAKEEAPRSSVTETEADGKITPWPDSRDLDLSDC
# experimentNotes: Selectivity of cannabinoid receptor 2 over cannabinoid receptor 1
# Assay type: protein assay
measuredParameter: Selectivity

COc1ccc(S(=O)(=O)c2cc(OC)ccc2S(=O)(=O)c2ccc([C@H](C)NC(=O)Nc3ccc(C)cc3)cc2)cc1 :: 125
COc1ccc(S(=O)(=O)c2cc(OC)ccc2S(=O)(=O)c2ccc([C@H](C)NC(C)=O)cc2)cc1 :: 231
COc1ccc(S(=O)(=O)c2cc(OC)ccc2S(=O)(=O)c2ccc([C@H](C)NS(=O)(=O)c3ccccc3)cc2)cc1 :: 3.6
COc1ccc(S(=O)(=O)c2cc(OC)ccc2S(=O)(=O)c2ccc([C@H](C)NS(C)(=O)=O)cc2)cc1 :: 2260
COc1ccc(S(=O)(=O)c2cc(OC)ccc2S(=O)(=O)c2ccc([C@H](C)NC(=O)C(F)(F)F)cc2)cc1 :: 783
CCCC(=O)N[C@@H](C)c1ccc(S(=O)(=O)c2ccc(OC)cc2S(=O)(=O)c2ccc(OC)cc2)cc1 :: 189
COc1ccc(S(=O)(=O)c2cc(OC)ccc2S(=O)(=O)c2ccc([C@H](C)NC(=O)c3ccc(C)cc3)cc2)cc1 :: 3
CCCCS(=O)(=O)N[C@@H](C)c1ccc(S(=O)(=O)c2ccc(OC)cc2S(=O)(=O)c2ccc(OC)cc2)cc1 :: 27
COc1ccc(S(=O)(=O)c2cc(OC)ccc2S(=O)(=O)c2ccc([C@H](C)NS(=O)(=O)c3ccc(Cl)c(Cl)c3)cc2)cc1 :: 0.05
CCS(=O)(=O)N[C@@H](C)c1ccc(S(=O)(=O)c2ccc(OC)cc2S(=O)(=O)c2ccc(OC)cc2)cc1 :: 1510
CCC(=O)N[C@@H](C)c1ccc(S(=O)(=O)c2ccc(OC)cc2S(=O)(=O)c2ccc(OC)cc2)cc1 :: 122
COc1ccc(C(=O)N[C@@H](C)c2ccc(S(=O)(=O)c3ccc(OC)cc3S(=O)(=O)c3ccc(OC)cc3)cc2)cc1 :: 0.9
COc1ccc(S(=O)(=O)c2cc(OC)ccc2S(=O)(=O)c2ccc([C@H](C)NS(=O)(=O)c3ccc(C)cc3)cc2)cc1 :: 3.9
CCCNC(=O)N[C@@H](C)c1ccc(S(=O)(=O)c2ccc(OC)cc2S(=O)(=O)c2ccc(OC)cc2)cc1 :: 145
COc1ccc(S(=O)(=O)c2cc(OC)ccc2S(=O)(=O)c2ccc([C@H](C)NC(=O)C3CC3)cc2)cc1 :: 676
COc1ccc(S(=O)(=O)c2cc(OC)ccc2S(=O)(=O)c2ccc([C@H](C)NC(=O)C(C)(C)C)cc2)cc1 :: 60

====

Listed compounds paired with reported Ki
# experimentNotes: Binding affinity for cannabinoid receptor 2 was determined by using [35S]GTP-gamma-S, as radioligand
# Assay type: functional, Homo sapiens
measuredParameter: Ki (nM)

CCC(=O)N[C@@H](C)c1ccc(S(=O)(=O)c2ccc(OC)cc2S(=O)(=O)c2ccc(OC)cc2)cc1 :: 29
COc1ccc(S(=O)(=O)c2cc(OC)ccc2S(=O)(=O)c2ccc([C@H](C)NS(=O)(=O)c3ccc(Cl)c(Cl)c3)cc2)cc1 :: 2480
COc1ccc(S(=O)(=O)c2cc(OC)ccc2S(=O)(=O)c2ccc([C@H](C)NS(=O)(=O)c3ccccc3)cc2)cc1 :: 239
COc1ccc(S(=O)(=O)c2ccc([C@H](C)NC(=O)C(F)(F)F)cc2)cc1 :: 31
